These measurements were taken from ChEMBL document CHEMBL1921799.

CC50: recorded values
# Test: Cytotoxicity against human MT2 cells infected with HIV1 NL4.3 by MTT assay
# Assay type: cell-based
# Protocol Conditions: MT2 cells infected with HIV1 NL4.3

Compound	Test Readout	Measured
Cc1ccnc2c1NC(=O)c1cccnc1N2C1CC1 [NEVIRAPINE]	CC50	> 100 µM

Attention now turns to another entry.
Task: Given the compound N#Cc1cc(Cl)cc(Oc2ccc(Cl)cc2OCCn2ccc(=O)[nH]c2=O)c1 , what is its reported CC50?
Result: > 100 µM

====

# Tested on: MT2
# Test: Cytotoxicity against human MT2 cells infected with HIV1 3B by MTT assay
# Assay type: cell-based
Reported CC50 maps to class as: bottom = under 20 µM, middle = from 20 µM up to 50 µM, top = 50 µM and over

Illustrative cases are given below, each with its answer.
N#Cc1cc(Cl)cc(Oc2ccc(C#N)cc2OCCn2ccc(=O)[nH]c2=O)c1 top
N#Cc1ccc(Cl)c(Oc2ccc(Cl)cc2OCCn2ccc(=O)[nH]c2=O)c1 top
N#Cc1cc(Cl)cc(Oc2ccc(Cl)cc2OCCn2cc(Cl)c(=O)[nH]c2=O)c1 middle
Cc1cn(CCOc2ccc(Cl)cc2Cc2ccccc2)c(=O)[nH]c1=O middle
N#C/C=C/c1cc(Cl)cc(Oc2ccc(Cl)cc2OCCn2ccc(=O)[nH]c2=O)c1 bottom
N#Cc1ccc(Oc2cccc(OCCCO)c2)c(OCCn2ccc(=O)[nH]c2=O)c1 top
N#Cc1cc(C#N)cc(Oc2cc(Cl)ccc2OCCn2ccc(=O)[nH]c2=O)c1 top
N#Cc1ccc(Oc2cc(Cl)cc(Cl)c2)c(OCCn2ccc(=O)[nH]c2=O)c1 top
O=c1ccn(CCOc2ccc(Cl)cc2Cc2ccccc2)c(=O)[nH]1 middle
O=c1ccn(CCOc2ccc(Cl)cc2Cc2ccc(Cl)cc2Cl)c(=O)[nH]1 top

Task: Sort N#C/C=C/c1cccc(Oc2ccc(C#N)cc2OCCn2ccc(=O)[nH]c2=O)c1 into one of the categories.
Result: top

Task: Sort N#Cc1cc(Cl)cc(Oc2ccc(C#N)cc2OCCn2cc(Cl)c(=O)[nH]c2=O)c1 into one of the categories.
Result: top

Task: Sort O=c1ccn(CCOc2cc(Cl)ccc2Cc2ccccc2Cl)c(=O)[nH]1 into one of the categories.
Result: bottom

Task: Sort Cc1ccc(OCCn2ccc(=O)[nH]c2=O)c(Cc2ccccc2)c1 into one of the categories.
Result: top

Task: Sort N#C/C=C/c1cc(F)cc(Oc2ccc(Cl)cc2OCCn2ccc(=O)[nH]c2=O)c1 into one of the categories.
Result: middle

====

EC50: recorded values
# Tested on: Human immunodeficiency virus 1
# Test: Antiviral activity against Human immunodeficiency virus 1 3B infected in human MT2 cells assessed as protection against viral infection by MTT assay
# Assay type: functional, organism-based
Reply with just the number (in nM).

Some entries whose results are on file:
N#C/C=C/c1cccc(Oc2ccc(C#N)cc2OCCn2ccc(=O)[nH]c2=O)c1 15
O=c1ccn(CCOc2ccc(Cl)cc2Cc2cc(Cl)ccc2Cl)c(=O)[nH]1 380
N#C/C=C/c1cc(Cl)cc(Oc2ccc(Cl)cc2OCCn2ccc(=O)[nH]c2=O)c1 0.055

Task: Given the compound N#Cc1cc(Cl)cc(Oc2ccc(Cl)cc2OCCn2ccc(=O)[nH]c2=O)c1 , what is its reported EC50?
Result: 14

Task: Given the compound COCCOc1cccc(Oc2ccc(C#N)cc2OCCn2ccc(=O)[nH]c2=O)c1 , what is its reported EC50?
Result: 540
